# Test system: PDC KRAS tumor spheroids with HUVEC/MSC, viability;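 note: spheroids exposed to compounds for seven days before readout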
# procedure.text: Anticancer human tumor 349418-098-R-PDC patient-derived lung adenocarcinoma cell line growth inhibition [KRAS2]
# condition.set: second compound 0.316 µM; first compound 0.001 µM; hits give low values
Checkbox rule: viability, T/C lower than 50% = YES; viability, T/C not lower than 50% = NO.

Solved cases (3 shown):
input: Please state whether viability, T/C is below 50% for CC(C)n1nc(-c2ccc3oc(N)nc3c2)c2c(N)ncnc21 + C=CC(=O)N1CCN(c2nc(=O)n(-c3c(C)ccnc3C(C)C)c3nc(-c4c(O)cccc4F)c(F)cc23)C(C)C1
output: YES

input: Problem: For the compound Cn1ncnc1[C@H]1c2n[nH]c(=O)c3cc(F)cc(c23)N[C@@H]1c1ccc(F)cc1 + CC1OCC2(CCN(c3cnc(Sc4ccnc(N)c4Cl)c(N)n3)CC2)C1N , is viability, T/C under 50%?
output: NO

input: Find out if reported viability, T/C for Cn1ncnc1[C@H]1c2n[nH]c(=O)c3cc(F)cc(c23)N[C@@H]1c1ccc(F)cc1 + CNCc1ccccc1-c1csc(C(C)Nc2nc(C)nc3cc(OC)c(OC)cc23)c1 is less than 50%
output: NO

Next:
input: For this compound, is viability, T/C lower than 50%? Cn1ncnc1[C@H]1c2n[nH]c(=O)c3cc(F)cc(c23)N[C@@H]1c1ccc(F)cc1 + C=CC(=O)N1CCN(c2nc(OCC3CCCN3C)nc3c2CCN(c2cccc4cccc(C)c24)C3)CC1CC#N
output: NO

input: For CC(C)n1nc(-c2ccc3oc(N)nc3c2)c2c(N)ncnc21 + C=CC(=O)N1CCN(c2nc(OCC3CCCN3C)nc3c2CCN(c2cccc4cccc(C)c24)C3)CC1CC#N , is the recorded viability, T/C below the cut-off of 50%?
output: YES

input: I'd appreciate it if you could check whether CN(C)C/C=C/C(=O)Nc1cc2c(Nc3ccc(F)c(Cl)c3)ncnc2cc1O[C@H]1CCOC1 + CC1OCC2(CCN(c3cnc(Sc4ccnc(N)c4Cl)c(N)n3)CC2)C1N has viability, T/C smaller than 50%.
output: NO
